Tested on: E. histolytica HM1: IMSS trophozoites
Test: Parasite assay, CellTiter-Glo EC50 dose response, E. histolytica trophozoites
Format: cell-based, Entamoeba histolytica
Conditions: Entamoeba histolytica; trophozoites, 48 h, minimum n = 3; read-out: E. histolytica EC50
pEC50: −log10 of the molar value.
Values of pEC50 greater than or equal to 4 map to Met; values below map to Not met.

COMPOUND	LABEL_VALUE
COc1cc(C[C@@H](C)[C@@H](C)Cc2ccc(O)c(O)c2)ccc1O [Compound 2, 3’-O-methylnordihydroguairetic acid]	Not met
C[C@H]1[C@H](c2ccc(O)c(O)c2)c2cc(O)c(O)cc2C[C@H]1C [Compound 6, 6,3'-Di-O-demethylisoguaiacin]	Not met
Cc1ncc([N+](=O)[O-])n1CCO [Metronidazole, reference compound]	Met
COc1cc2c(cc1O)C[C@@H](C)[C@@H](C)[C@@H]2c1ccc(O)cc1 [Compound 5, 3’-Demethoxyisoguaiacin]	Not met

FYI, the data here is from paper PMC5565192.
